Taken from paper PMC11497205.

Assayed target: COX-1 (Homo sapiens)
Construct: a cyclooxygenase activity assay kit starting from Caco-2/TC7 cell lysates was used; endogenous in cells; host or cells: Caco-2/TC7 (human colon carcinoma)
Sequence (P23219 24-599): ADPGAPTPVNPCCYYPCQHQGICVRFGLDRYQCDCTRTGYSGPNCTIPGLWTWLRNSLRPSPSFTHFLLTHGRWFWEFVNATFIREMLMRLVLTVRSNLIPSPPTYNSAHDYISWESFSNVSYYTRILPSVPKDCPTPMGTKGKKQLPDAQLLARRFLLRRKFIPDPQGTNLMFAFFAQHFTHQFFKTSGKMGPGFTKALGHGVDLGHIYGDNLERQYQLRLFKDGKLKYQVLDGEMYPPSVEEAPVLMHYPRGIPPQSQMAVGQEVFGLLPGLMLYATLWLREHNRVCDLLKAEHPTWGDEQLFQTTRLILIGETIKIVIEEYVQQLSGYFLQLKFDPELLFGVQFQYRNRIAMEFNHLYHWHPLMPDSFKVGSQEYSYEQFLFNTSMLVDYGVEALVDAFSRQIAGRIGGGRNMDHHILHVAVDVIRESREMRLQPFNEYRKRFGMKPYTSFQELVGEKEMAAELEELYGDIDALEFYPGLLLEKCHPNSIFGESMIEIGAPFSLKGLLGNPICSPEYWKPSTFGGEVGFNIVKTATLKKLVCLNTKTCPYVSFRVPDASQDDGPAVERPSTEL
Assay method text: Intracellular COX-1 activity, kit on Caco-2/TC7 cell lysates
Assay type: cell-based
Run conditions: Caco-2/TC7 cells, 24 h incubation with 20 μM of free ligands, mean ± SEM
Readout kind: Percent inhibition of COX-1 (%)

COC(=O)[C@H](CCSC)NC(=O)c1ccccc1Nc1cccc(C)c1C [L1]
15.2
COC(=O)[C@H](CCSC)NC(=O)[C@@H](C)c1ccc2cc(OC)ccc2c1 [L4]
36.9
COC(=O)C(CCSC)NC(=O)Cc1c(C)n(C(=O)c2ccc(Cl)cc2)c2ccc(OC)cc12 (stereo not shown) [L3]
22.9
COC(=O)[C@H](CCSC)NC(=O)C(C)c1ccc(CC(C)C)cc1 (stereo partly shown) [L2]
15.9
